System: SNU-C2B (Colorectal Carcinoma)
Experiment: combination Emax (second highest fraction inhibited in the dose matrix, 72 h); higher = more inhibition; extreme values may be limits of the assay
Rule: Yes for combination Emax not less than 0.5, No for anything less.

These solved cases illustrate the format of a correct answer.
{"Compound": "CN(CCO)CC[C@H](CSc1ccccc1)Nc1ccc(S(=O)(=O)NC(=O)c2ccc(N3CCC([C@@H](O)c4ccccc4-c4ccc(Cl)cc4)CC3)cc2)cc1S(=O)(=O)C(F)(F)F [AZD4320] + C1CN(CCC1(C(=O)N[C@@H](CCO)C2=CC=C(C=C2)Cl)N)C3=NC=NC4=C3C=CN4 [Capivasertib] (first compound max 1 µM, 7x7, partner max 3 µM)", "Test Target": "SNU-C2B (Colorectal Carcinoma)", "Group Label": "No"}
{"Compound": "CCN(CCO)CCCOc1ccc2c(Nc3cc(CC(=O)Nc4cccc(F)c4)[nH]n3)ncnc2c1 [AZD2811] + O=C(c1cc(Cc2n[nH]c(=O)c3ccccc23)ccc1F)N1CCN(C(=O)C2CC2)CC1 [Olaparib] (first compound max 1 µM, 7x7, partner max 10 µM)", "Test Target": "SNU-C2B (Colorectal Carcinoma)", "Group Label": "No"}

Let's switch to this compound now.
q: Determine whether this compound has combination Emax no lower than 0.5: COc1nnc2ccc(N3CCC(c4ccc(OCCN5CCN(C)C(=O)[C@H]5C)cc4)CC3)nn12 [AZD5153] + CC1(C)CCC(CN2CCN(c3ccc(C(=O)NS(=O)(=O)c4ccc(NCC5CCOCC5)c([N+](=O)[O-])c4)c(Oc4cnc5[nH]ccc5c4)c3)CC2)=C(c2ccc(Cl)cc2)C1 [Venetoclax] (first compound max 1 µM, 7x7, partner max 1 µM)
a: Yes

* * *

Tested on: P32-ISH (Burkitt's Lymphoma)
Test: combination Emax (second highest fraction inhibited in the dose matrix, 72 h); higher = more inhibition; extreme values may be limits of the assay
Parameter: combination Emax
Just the number.

Known results for molecules:
{"Molecule": "NC1(C(=O)N[C@@H](CCO)c2ccc(Cl)cc2)CCN(c2ncnc3[nH]ccc23)CC1 [Capivasertib] + CCN(CCO)CCCOc1ccc2c(Nc3cc(CC(=O)Nc4cccc(F)c4)[nH]n3)ncnc2c1 [AZD2811] (first compound max 10 µM, 7x7, partner max 1 µM)", "combination Emax": 0.951}
{"Molecule": "C=CCn1c(=O)c2cnc(Nc3ccc(N4CCN(C)CC4)cc3)nc2n1-c1cccc(C(C)(C)O)n1 [AZD1775] + C1CN(CCC1(C(=O)N[C@@H](CCO)C2=CC=C(C=C2)Cl)N)C3=NC=NC4=C3C=CN4 [Capivasertib] (first compound max 3 µM, partner max 3 µM)", "combination Emax": 1}
{"Molecule": "C[C@@H]1COCCN1c1cc(C2([S@](C)(=N)=O)CC2)nc(-c2ccnc3[nH]ccc23)n1 [AZD6738] + O=C(c1cc(Cc2n[nH]c(=O)c3ccccc23)ccc1F)N1CCN(C(=O)C2CC2)CC1 [Olaparib] (first compound max 10 µM, 7x7, partner max 10 µM)", "combination Emax": 0.91}
{"Molecule": "Cn1cnc2c(F)c(Nc3ccc(Br)cc3Cl)c(C(=O)NOCCO)cc21 [Selumetinib] + C[C@@H]1COCCN1C2=NC(=NC(=C2)C3(CC3)[S@](=N)(=O)C)C4=C5C=CNC5=NC=C4 [AZD6738] (first compound max 10 µM, 7x7, partner max 10 µM)", "combination Emax": 0.918}

q: Query the reported combination Emax for P32-ISH (Burkitt's Lymphoma); item: CN(C)CCCOc1ccc(-c2ccc3ncc4c(c3c2)n(C2CCOCC2)c(=O)n4C)cn1 [AZD0156] + CCN(CCO)CCCOc1ccc2c(Nc3cc(CC(=O)Nc4cccc(F)c4)[nH]n3)ncnc2c1 [AZD2811] (first compound max 1 µM, 7x7, partner max 1 µM)
a: 0.962

q: Query the reported combination Emax for P32-ISH (Burkitt's Lymphoma); item: COc1cccc(OCCCN)c1-c1cc(Nc2cnc(C#N)cn2)n[nH]1 [Prexasertib] + O=C(c1cc(Cc2n[nH]c(=O)c3ccccc23)ccc1F)N1CCN(C(=O)C2CC2)CC1 [Olaparib] (first compound max 1 µM, 7x7, partner max 10 µM)
a: 1

q: Query the reported combination Emax for P32-ISH (Burkitt's Lymphoma); item: CCc1c2c(nc3ccc(O)cc13)-c1cc3c(c(=O)n1C2)COC(=O)[C@]3(O)CC [SN-38] + CN(C)CCCOc1ccc(-c2ccc3ncc4c(c3c2)n(C2CCOCC2)c(=O)n4C)cn1 [AZD0156] (first compound max 0.3 µM, 7x7, partner max 1 µM)
a: 1

* * *

Measured combination Emax, listed per entry.
System: LCLC-103H (Non-Small Cell Lung Carcinoma)
Experiment: combination Emax (second highest fraction inhibited in the dose matrix, 72 h); higher = more inhibition; extreme values may be limits of the assay
Just the number.

{"Molecule": "COc1cccc(OCCCN)c1-c1cc(Nc2cnc(C#N)cn2)n[nH]1 [Prexasertib] + C[C@@H]1COCCN1C2=NC(=NC(=C2)C3(CC3)[S@](=N)(=O)C)C4=C5C=CNC5=NC=C4 [AZD6738] (first compound max 1 µM, 7x7, partner max 10 µM)", "combination Emax": 0.738}

Query molecule follows.
q: Give its combination Emax value. Item: CN(CCO)CC[C@H](CSc1ccccc1)Nc1ccc(S(=O)(=O)NC(=O)c2ccc(N3CCC([C@@H](O)c4ccccc4-c4ccc(Cl)cc4)CC3)cc2)cc1S(=O)(=O)C(F)(F)F [AZD4320] + Cn1cnc2c(F)c(Nc3ccc(Br)cc3Cl)c(C(=O)NOCCO)cc21 [Selumetinib] (first compound max 1 µM, 7x7, partner max 3 µM)
a: 0.423

* * *

System: LS-1034 (Colorectal Carcinoma)
Experiment: Bliss excess, mean over the matrix (fraction); higher = more synergy
Rule: Criterion met for Bliss excess not less than -0.04, Criterion not met for anything less.

These solved cases illustrate the format of a correct answer.
{"Compound": "CC(=O)c1c(C)c2cnc(Nc3ccc(N4CCNCC4)cn3)nc2n(C2CCCC2)c1=O [Palbociclib] + CC1(C)CCC(CN2CCN(c3ccc(C(=O)NS(=O)(=O)c4ccc(NCC5CCOCC5)c([N+](=O)[O-])c4)c(Oc4cnc5[nH]ccc5c4)c3)CC2)=C(c2ccc(Cl)cc2)C1 [Venetoclax] (first compound max 10 µM, 7x7, partner max 1 µM)", "Group Label": "Criterion not met"}
{"Compound": "Cc1c2c(nn1C)CSCc1cc(n(C)n1)CSc1cc(c3ccccc3c1)OCCCc1c(C(=O)O)n(C)c3c-2c(Cl)ccc13 [AZD5991] + C[C@@H]1COCCN1C2=NC(=NC(=C2)C3(CC3)[S@](=N)(=O)C)C4=C5C=CNC5=NC=C4 [AZD6738] (first compound max 1 µM, 7x7, partner max 10 µM)", "Group Label": "Criterion met"}
{"Compound": "Cc1cc2ncnn2cc1Nc1ncc2c(n1)n(C1CCOCC1)c(=O)n2C [AZD7648] + C=CCn1c(=O)c2cnc(Nc3ccc(N4CCN(C)CC4)cc3)nc2n1-c1cccc(C(C)(C)O)n1 [AZD1775] (first compound max 10 µM, partner max 1 µM)", "Group Label": "Criterion not met"}
{"Compound": "C[C@@H](Nc1cc(F)cc(F)c1)c1cc(C(=O)N(C)C)cc2c(=O)cc(N3CCOCC3)oc12 [AZD8186] + C1CN(CCC1(C(=O)N[C@@H](CCO)C2=CC=C(C=C2)Cl)N)C3=NC=NC4=C3C=CN4 [AZD5363] (first compound max 10 µM, 7x7, partner max 10 µM)", "Group Label": "Criterion met"}

q: Determine whether this compound has Bliss excess no lower than -0.04: Cn1cnc2c(F)c(Nc3ccc(Br)cc3Cl)c(C(=O)NOCCO)cc21 [Selumetinib] + CC(C)n1c(=O)n(C)c2cnc3cc(F)c(-c4ccc(OCCCN5CCCCC5)nc4)cc3c21 [AZD1390] (first compound max 10 µM, 7x7, partner max 0.3 µM)
a: Criterion met

q: Determine whether this compound has Bliss excess no lower than -0.04: CN(CCO)CC[C@H](CSc1ccccc1)Nc1ccc(S(=O)(=O)NC(=O)c2ccc(N3CCC([C@@H](O)c4ccccc4-c4ccc(Cl)cc4)CC3)cc2)cc1S(=O)(=O)C(F)(F)F [AZD4320] + CN(C)CCCOc1ccc(-c2ccc3ncc4c(c3c2)n(C2CCOCC2)c(=O)n4C)cn1 [AZD0156] (first compound max 1 µM, 7x7, partner max 1 µM)
a: Criterion met

* * *

Measured Bliss excess, listed per entry.
System: MOLT-13 (T-Lymphoblastic Leukemia)
Experiment: Bliss excess, mean over the matrix (fraction); higher = more synergy
Just the number.

{"Compound": "NC1(C(=O)N[C@@H](CCO)c2ccc(Cl)cc2)CCN(c2ncnc3[nH]ccc23)CC1 [Capivasertib] + CCN(CCO)CCCOc1ccc2c(Nc3cc(CC(=O)Nc4cccc(F)c4)[nH]n3)ncnc2c1 [AZD2811] (first compound max 10 µM, 7x7, partner max 1 µM)", "Measurement": -0.0569}

q: Give its Bliss excess value. Item: CN(CCO)CC[C@H](CSc1ccccc1)Nc1ccc(S(=O)(=O)NC(=O)c2ccc(N3CCC([C@@H](O)c4ccccc4-c4ccc(Cl)cc4)CC3)cc2)cc1S(=O)(=O)C(F)(F)F [AZD4320] + C[C@@H]1COCCN1C2=NC(=NC(=C2)C3(CC3)[S@](=N)(=O)C)C4=C5C=CNC5=NC=C4 [AZD6738] (first compound max 1 µM, 7x7, partner max 10 µM)
a: -0.0057

q: Give its Bliss excess value. Item: CN(CCO)CC[C@H](CSc1ccccc1)Nc1ccc(S(=O)(=O)NC(=O)c2ccc(N3CCC([C@@H](O)c4ccccc4-c4ccc(Cl)cc4)CC3)cc2)cc1S(=O)(=O)C(F)(F)F [AZD4320] + Cc1cc2ncnn2cc1Nc1ncc2c(n1)n(C1CCOCC1)c(=O)n2C [AZD7648] (first compound max 1 µM, 7x7, partner max 10 µM)
a: 0.0309
